Tested on: U2OS
assayProcedure: Multiplex assay against U2OS
Type: toxicity, cell-based
conditionDetails: human, 12 h, 10 µM, compound concentration 10 uM, replicate 1
measuredMetric: Population Normal (%)

>>> reportedvalue("CN(c1cc(C(F)(F)F)nc(OCCC(=O)O)n1)c1cccc2c1CCC2")
"94%"
>>> reportedvalue("C=CC(=O)Nc1cc(-n2c(=O)ccc3cnc4ccc(-c5ccc(NS(C)(=O)=O)cc5)cc4c32)ccc1C")
"92%"
>>> reportedvalue("CCOc1ccn(-c2ccc(F)cc2)c(=O)c1C(=O)Nc1ccc(Oc2ccnc(N)c2Cl)c(F)c1")
"98%"
>>> reportedvalue("CC[C@H](Nc1ncnc2[nH]cnc12)c1nc2cccc(F)c2c(=O)n1-c1ccccc1")
"88%"
>>> reportedvalue("Cl.NC[C@@H]1O[C@H](C23CC4CC(CC(C4)C2)C3)Cc2c1ccc(O)c2O")
"92%"
>>> reportedvalue("Cc1c(P(=S)(c2ccccc2)c2ccccc2)n2ccccc2[n+]1C/C=C/c1ccccc1.[Br-]")
"78%"
>>> reportedvalue("CC(C)[C@H](CO)Nc1nc(Nc2cccc(Cl)c2)c2ncn(C(C)C)c2n1")
"86%"

Cited source for all entries: ChEMBL document CHEMBL4689842
